# protocol: Human HepG2 cell viability assay in 384 well format
# Assay type: toxicity, cell-based
# Parameters: dose 125 nL, time 70.5 hour; concentration not given beside the values
# assay.setup: HepG2 cells, read-out: Inhibition
observed.property: cytotoxicity at 70.5 h (%)
A number alone suffices; assume %.

Some solved entries appear below for comparison.
| molecule | reported.result |
| --- | --- |
| CNc1nc(C2CCN(C(=O)CC3CCCC3)C2)nc2c1CN(C)CC2 (stereo not given) | 8.17 |
| Cc1ccc(-c2ncc(CN3CCN(C(=O)N(C)C)CC3)s2)o1 | -7.74 |
| CC(NCc1ccc(OCC(N)=O)cc1)c1ccc2c(c1)CCCC2 (stereo not given) | -4.04 |
| CS(=O)(=O)N1CCc2sc(C(=O)NCc3ccncc3)cc21 | -7.65 |

Lab note: next molecule to report on.
Query :: Requested read-out: cytotoxicity at 70.5 h. Entry: Cn1nc(C#N)c2c1CN(C(=O)c1c[nH]cn1)CCC2
Result :: -7.05
